These entries and their values trace back to patent US20260209362A1.

Each entry below lists one item and its recorded ELISA mIL12RB2/control value.
# tgt: T1, biotinylated recombinant mouse IL-12Rβ2 (produced in-house) (mouse, UniProt P97378 24-637, random biotinylated)
# T1 construct: also called mIL-12RB2; mIL12RB2
# T1 sequence: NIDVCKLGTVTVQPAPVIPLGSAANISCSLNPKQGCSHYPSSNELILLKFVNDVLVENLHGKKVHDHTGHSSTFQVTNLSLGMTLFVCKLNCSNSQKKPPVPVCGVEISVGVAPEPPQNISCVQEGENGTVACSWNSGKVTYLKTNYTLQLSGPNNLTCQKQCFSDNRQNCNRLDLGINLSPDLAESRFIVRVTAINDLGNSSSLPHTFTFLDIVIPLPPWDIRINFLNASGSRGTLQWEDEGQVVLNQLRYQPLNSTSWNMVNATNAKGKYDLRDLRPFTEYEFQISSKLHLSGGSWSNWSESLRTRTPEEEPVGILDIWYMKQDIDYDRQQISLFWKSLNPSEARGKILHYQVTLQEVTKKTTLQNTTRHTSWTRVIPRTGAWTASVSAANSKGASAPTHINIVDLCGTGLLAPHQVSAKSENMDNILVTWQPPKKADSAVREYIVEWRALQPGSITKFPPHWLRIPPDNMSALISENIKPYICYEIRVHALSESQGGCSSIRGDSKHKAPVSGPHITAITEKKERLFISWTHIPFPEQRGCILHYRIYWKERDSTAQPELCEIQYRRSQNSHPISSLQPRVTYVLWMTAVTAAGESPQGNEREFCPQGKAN
# experimental-protocol: ELISA, P.E. VHH on biotinylated mIL-12RB2, signal ratio to control well
Just the number, please, no unit after it.

Example entries and their recorded answers appear below.
binder: anti-IL-12Rβ2 VHH clone 3CRHS163 (VHH, not shown: small tags and cut ends, tested as periplasmic extract) VHH: QVQLQESGGGLVQPGGSLRLSCTASGFAFSTYWMYWIRQSPEKGFEWVSVVNTGGDITYYADSVKGRFTISRDNAKNTLYLQMNSLKPEDTALYYCARDRTTMSYTRTYYRGGQGTQVTVSS
assay-value: 0.93
//
binder: anti-IL-12Rβ2 VHH clone 3CRH5 (VHH, not shown: small tags and cut ends, tested as periplasmic extract; also called 3CRHS) VHH: QVQLQESGGGLVQAGGSLVLSCAASGSAALIFLMSWYRQAPGKQRELVAEVSRGGSTTYADSVEGRFTISRDNAKNIVDLQMNSLKPEDTAVYYCKADQNYGDSLRSSWGQGTQVTVSS
assay-value: 0.81
//
binder: anti-IL-12Rβ2 VHH clone 3CRHS54 (VHH, not shown: small tags and cut ends, tested as periplasmic extract; also called 3CRHSS4) VHH: QVQLQESGGGLVQPGGSLRLSCTASGSIVSIYNMDWYRQAPGNEREWVASITSSGDPYYDGSAKGRFTISRDNAKMTVYLQMNSLEPEDTAVYFCKVPTEKGNYWGQGTQVTVSS
assay-value: 1.26

Note: attention shifts to another entry.
Exercise: Tell me its ELISA mIL12RB2/control given anti-IL-12Rβ2 VHH clone 3CRHS128 (VHH, not shown: small tags and cut ends, tested as periplasmic extract; also called SCRHS128) VHH: QVQLQESGGGLVQPGGSLRLSCAASGFTFSTSGMHWFRQAPGKGLEWVSSIGATVDNSYYASSVKGRFTISRDNAKNTLYLLMNSLKSEDTAVYYCSKDPTGSSRGQGTQVTVSS as the entry.
Solution: 0.98
